# measured_target: Human 11β-HSD1 (Homo sapiens, UniProt P28845)
# Construct: expressed in transfected cells; host or cells: CHOP cells (transient, FuGENE)
# Sequence (P28845 whole entry): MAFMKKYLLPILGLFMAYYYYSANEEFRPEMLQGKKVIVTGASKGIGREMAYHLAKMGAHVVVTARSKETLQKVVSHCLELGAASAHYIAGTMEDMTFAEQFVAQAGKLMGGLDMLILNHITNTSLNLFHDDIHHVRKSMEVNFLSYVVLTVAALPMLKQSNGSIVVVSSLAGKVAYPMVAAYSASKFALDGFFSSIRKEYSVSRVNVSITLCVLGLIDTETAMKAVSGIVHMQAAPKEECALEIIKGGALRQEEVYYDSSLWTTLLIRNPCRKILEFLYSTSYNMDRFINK
# assay_text: 11β-HSD1 assay in microsomes from CHOP cells transfected with human HSD11B1
# Type: biochemical
pIC50: −log10 of the molar value.
recorded_endpoint: pIC50

INSERT INTO assay_data (compound, measured_target, recorded_endpoint, val) VALUES
  ('COc1cc(/C=C/C(=O)CC(=O)/C=C/c2ccc(O)c(OC)c2)ccc1O [1 (Curcumin), Curcumin]', 'Human 11β-HSD1 (Homo sapiens, UniProt P28845)', 'pIC50', 4.97);

---

# measured_target: Human 11β-HSD1 (Homo sapiens)
# Construct: expressed in transfected cells; host or cells: CHOP cells (transient, FuGENE)
# assay_text: 11β-HSD1 assay in intact CHOP cells transfected with human HSD11B1
# Assay type: cell-based
# recorded_conditions: intact CHOP cells transfected with human HSD11B1; read-out: IC50 human 11β-HSD1 in intact cells
# Method: An expression plasmid was constructed to express human 11β-HSD1 (HSD11B1) cDNA in pcDNA I expression vector from its original human HSD11B1 vector (pBluescriptSK+).[15]. […] 11β-HSD1 reductase activity was performed in intact cells using endogenous cofactor NADPH as described previously. […] The percentage conversion of 11DHC to CORT or cortisone to cortisol was calculated by dividing the radioactive counts identified as 11-OH-steroids by the total counts. […]
recorded_endpoint: IC50 (µM)

INSERT INTO results (smiles, recorded_endpoint, val) VALUES
  ('O=C1/C(=C/c2cccs2)CCC/C1=C\c1cccs1', 'IC50', 3.57);

---

# measured_target: Human 11β-HSD2 (Homo sapiens)
# Construct: tissue Gentest (Woburn, MA); host or cells: human kidney microsomes
# Sequence (P80365 whole entry): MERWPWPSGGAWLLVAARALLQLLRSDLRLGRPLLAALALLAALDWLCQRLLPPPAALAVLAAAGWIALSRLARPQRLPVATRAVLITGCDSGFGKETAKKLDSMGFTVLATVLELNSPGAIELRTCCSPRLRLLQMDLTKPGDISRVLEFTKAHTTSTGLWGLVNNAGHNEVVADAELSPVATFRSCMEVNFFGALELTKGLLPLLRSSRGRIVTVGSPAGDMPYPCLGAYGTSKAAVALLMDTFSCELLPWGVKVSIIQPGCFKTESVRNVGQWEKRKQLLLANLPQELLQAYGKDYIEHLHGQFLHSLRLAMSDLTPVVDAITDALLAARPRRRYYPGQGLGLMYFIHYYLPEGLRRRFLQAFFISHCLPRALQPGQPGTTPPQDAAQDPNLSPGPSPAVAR
# assay_text: 11β-HSD2 assay in human kidney microsomes
# Format: biochemical
# recorded_conditions: human kidney microsomes; read-out: IC50 (nM) Human 11β-HSD2
recorded_endpoint: IC50

INSERT INTO results (smiles, val) VALUES
  ('Cn1cccc1/C=C1\CCC/C(=C\c2cccn2C)C1=O', '> 100000 nM'),
  ('O=C1/C(=C/c2ccc(Br)o2)CC/C1=C\c1ccc(Br)o1', '> 100000 nM'),
  ('O=C1/C(=C/c2cccs2)CC/C1=C\c1cccs1', '> 100000 nM'),
  ('Cn1cccc1/C=C1\CC/C(=C\c2cccn2C)C1=O', '> 100000 nM'),
  ('O=C(/C=C/c1cccs1)/C=C/c1cccs1', '> 100000 nM'),
  ('Cc1ccsc1/C=C1\CC/C(=C\c2sccc2C)C1=O', '> 100000 nM'),
  ('O=C(/C=C/c1ccc(Br)o1)/C=C/c1ccc(Br)o1', '> 100000 nM'),
  ('Cc1ccc(/C=C2\CC/C(=C\c3ccc(C)s3)C2=O)s1', '> 100000 nM'),
  ('O=C1/C(=C/c2cccs2)CCC/C1=C\c1cccs1', '> 100000 nM'),
  ('O=C1/C(=C/c2ccc(Br)o2)CCC/C1=C\c1ccc(Br)o1', '> 100000 nM'),
  ('Cc1ccc(/C=C2\CCC/C(=C\c3ccc(C)s3)C2=O)s1', '> 100000 nM'),
  ('Cc1ccsc1/C=C/C(=O)/C=C/c1sccc1C', '19600 nM'),
  ('COc1cc(/C=C/C(=O)CC(=O)/C=C/c2ccc(O)c(OC)c2)ccc1O', '14600 nM');
